SYSTEM TESTED: IKZF2 (Homo sapiens, UniProt Q96SW2+Q9UKS7)
Construct: expressed in transfected cells
Sequence (Q9UKS7 1-500 isoform Q9UKS7-2): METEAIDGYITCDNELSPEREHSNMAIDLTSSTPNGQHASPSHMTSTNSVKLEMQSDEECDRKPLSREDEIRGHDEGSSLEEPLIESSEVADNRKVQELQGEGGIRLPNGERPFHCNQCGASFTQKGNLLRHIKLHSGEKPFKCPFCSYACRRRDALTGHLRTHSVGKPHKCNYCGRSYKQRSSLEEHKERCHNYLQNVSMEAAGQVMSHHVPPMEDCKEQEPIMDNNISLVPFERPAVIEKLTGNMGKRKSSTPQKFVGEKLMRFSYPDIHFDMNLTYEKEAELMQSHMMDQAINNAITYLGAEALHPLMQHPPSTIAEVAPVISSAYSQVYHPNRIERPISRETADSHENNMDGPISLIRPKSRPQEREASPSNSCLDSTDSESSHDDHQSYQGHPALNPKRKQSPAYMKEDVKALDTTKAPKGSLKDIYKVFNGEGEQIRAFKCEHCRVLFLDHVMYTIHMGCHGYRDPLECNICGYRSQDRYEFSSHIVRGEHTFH
Sequence (Q96SW2 whole entry): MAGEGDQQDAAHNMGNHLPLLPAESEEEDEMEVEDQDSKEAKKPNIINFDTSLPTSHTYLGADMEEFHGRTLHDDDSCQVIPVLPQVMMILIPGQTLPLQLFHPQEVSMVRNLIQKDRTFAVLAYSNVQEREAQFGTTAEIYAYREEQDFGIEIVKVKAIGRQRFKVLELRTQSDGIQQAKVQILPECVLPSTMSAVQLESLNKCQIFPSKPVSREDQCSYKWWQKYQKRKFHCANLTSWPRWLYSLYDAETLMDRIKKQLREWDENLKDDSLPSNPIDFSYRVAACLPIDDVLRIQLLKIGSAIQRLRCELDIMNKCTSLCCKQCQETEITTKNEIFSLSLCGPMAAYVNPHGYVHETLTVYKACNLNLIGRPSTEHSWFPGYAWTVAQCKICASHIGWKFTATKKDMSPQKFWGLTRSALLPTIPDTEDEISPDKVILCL
Sequence (Q16531 whole entry partner): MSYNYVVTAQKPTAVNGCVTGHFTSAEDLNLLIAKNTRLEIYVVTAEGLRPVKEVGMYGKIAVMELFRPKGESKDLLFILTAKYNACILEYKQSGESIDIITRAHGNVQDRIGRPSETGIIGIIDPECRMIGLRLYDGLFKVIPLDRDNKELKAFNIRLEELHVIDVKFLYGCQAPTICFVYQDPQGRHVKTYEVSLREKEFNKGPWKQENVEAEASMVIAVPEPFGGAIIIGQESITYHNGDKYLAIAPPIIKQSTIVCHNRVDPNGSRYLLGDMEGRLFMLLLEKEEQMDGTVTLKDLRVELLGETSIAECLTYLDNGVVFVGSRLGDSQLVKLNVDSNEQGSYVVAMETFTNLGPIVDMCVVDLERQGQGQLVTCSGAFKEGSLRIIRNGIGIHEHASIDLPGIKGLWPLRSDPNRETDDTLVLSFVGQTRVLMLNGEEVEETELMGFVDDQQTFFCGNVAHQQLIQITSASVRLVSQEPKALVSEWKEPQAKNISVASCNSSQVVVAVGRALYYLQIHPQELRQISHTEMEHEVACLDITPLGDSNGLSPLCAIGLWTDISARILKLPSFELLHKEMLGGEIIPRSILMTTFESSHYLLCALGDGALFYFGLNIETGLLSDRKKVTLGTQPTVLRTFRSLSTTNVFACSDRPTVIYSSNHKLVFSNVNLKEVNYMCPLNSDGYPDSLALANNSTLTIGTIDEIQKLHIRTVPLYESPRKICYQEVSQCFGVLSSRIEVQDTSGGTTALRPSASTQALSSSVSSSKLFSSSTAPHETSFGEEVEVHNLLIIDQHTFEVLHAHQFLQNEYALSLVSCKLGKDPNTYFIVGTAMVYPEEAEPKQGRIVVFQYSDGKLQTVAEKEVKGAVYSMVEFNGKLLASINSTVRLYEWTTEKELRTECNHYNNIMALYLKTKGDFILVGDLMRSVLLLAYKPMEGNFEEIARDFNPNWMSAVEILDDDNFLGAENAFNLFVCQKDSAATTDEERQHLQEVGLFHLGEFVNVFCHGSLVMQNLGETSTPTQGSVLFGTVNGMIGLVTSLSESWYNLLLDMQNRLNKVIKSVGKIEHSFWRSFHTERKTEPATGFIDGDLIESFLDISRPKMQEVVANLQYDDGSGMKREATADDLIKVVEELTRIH
EXPERIMENT DESCRIPTION: HiBiT protein tagging assay, in vitro IKZF2 degradation (HEK293)
Format: cell-based
SETTINGS: IKZF2-HiBiT reporter Flp-In T-REx HEK293 cells, doxycycline-induced, compound overnight (18-24 hr), normalized to DMSO control; read-out: IKZF2 Dmax (maximum degradation at the highest concentration tested)
Under this convention, T denotes Dmax strictly below 90% and F denotes Dmax at or above 90%.

Worked examples follow.
O=C1CCC(N2Cc3cc(OC4CN(CC(F)F)CCC4NCc4ccccc4)ccc3C2=O)C(=O)N1 (stereo not shown) [Example 49]    T
O=C1CCC(N2Cc3cc(O[C@H]4CN(Cc5c(F)cccc5F)CC[C@@H]4NCc4ccccc4)ccc3C2=O)C(=O)N1 (mixture of isomers) [Example 24]    F
O=C1CCC(N2Cc3cc(O[C@H]4CN(c5ccccc5)C[C@@H]4NCc4ccccc4)ccc3C2=O)C(=O)N1 (stereo partly shown) [Example 39]    T
O=C1CCC(N2Cc3cc(O[C@H]4CN(Cc5ccccc5)CC[C@@H]4NCc4ccccc4)ccc3C2=O)C(=O)N1 (stereo partly shown) [Example 2a]    F
CCOC1CN(C2CCN(Cc3ccccc3)CC2Oc2ccc3c(c2)CN(C2CCC(=O)NC2=O)C3=O)C1 (racemic) [Example 58]    F

Request: Is the reported Dmax for O=C1CCC(N2Cc3cc(O[C@H]4CN(CCC(F)(F)F)CC[C@@H]4NCc4ccccc4)ccc3C2=O)C(=O)N1 (mixture of isomers) [Example 52] strictly below 90%?
Response: T

Request: Queued: N#Cc1ccc(CN2CC[C@H](NCc3ccccc3)[C@@H](Oc3ccc4c(c3)CN(C3CCC(=O)NC3=O)C4=O)C2)cc1 (mixture of isomers) [Example 32]
Response: F
